Origin of measurements: the supplement of paper PMC11451515

- System: SEM cells
- protocol_description: cell viability relative to DMSO control; higher = less cytotoxic
- experimental_parameters: RPMI 5 mM glucose + 10% dialyzed FBS; 48 h; 15.4 µM
measured_metric: cell viability (%)
Give bare numbers, in %.

Known cell viability results, listed for orientation:
{"compound": "CC(S)C(=O)NCC(=O)O (stereo not drawn)", "target_entity": "SEM cells", "measured_metric": "cell viability", "reported_value": 119}
{"compound": "Cc1cccc2c1CC[C@H](CN1CCC(c3c(Cl)cccc3Cl)CC1)C[C@@H]2O", "target_entity": "SEM cells", "measured_metric": "cell viability", "reported_value": 70.6}
{"compound": "C=CC(=O)Nc1ccc2ncnc(Nc3ccc(OCc4cccc(F)c4)c(Cl)c3)c2c1", "target_entity": "SEM cells", "measured_metric": "cell viability", "reported_value": 19.9}
{"compound": "NCCc1ccc(O)c(O)c1", "target_entity": "SEM cells", "measured_metric": "cell viability", "reported_value": 95.2}
{"compound": "CN(C)[C@@H](CCOc1cccc2ccccc12)c1ccccc1", "target_entity": "SEM cells", "measured_metric": "cell viability", "reported_value": 136}

Return reported cell viability values for all items listed beneath this line.
1. CC(C)c1c(C(=O)Nc2ccccc2)c(-c2ccccc2)c(-c2ccc(F)cc2)n1CC[C@@H](O)C[C@@H](O)CC(=O)[O-]
2. N[C@@H](Cc1ccc(O)c(O)c1)C(=O)O

80
128

====

Would you kindly list cell viability for each of these compounds?
- System: NOMO1
- protocol_description: cell viability relative to DMSO control; higher = less cytotoxic
- experimental_parameters: HPLM + 10% dialyzed FBS; 48 h; 0.000781 µM
One number for each entry, in %.

{"compound_smiles": "CN(C)CCOc1ccc(/C(=C(/CCCl)c2ccccc2)c2ccccc2)cc1", "measurement_unit": "%", "cell viability": 105}

Return reported cell viability values for all items listed beneath this line.
1. CN1CCN(CCCN2c3ccccc3Sc3ccc(Cl)cc32)CC1.O=C(O)/C=C\C(=O)O.O=C(O)/C=C\C(=O)O
2. N#Cc1ccnc(N2C(=O)CC[C@H]2C(=O)N(c2cncc(F)c2)[C@H](C(=O)NC2CC(F)(F)C2)c2ccccc2Cl)c1
3. Oc1ccc2ccccc2c1SSc1c(O)ccc2ccccc12

112
90.6
94.5

====

- System: NOMO1
- protocol_description: cell viability relative to DMSO control; higher = less cytotoxic
- experimental_parameters: RPMI 5 mM glucose + 10% FBS; 48 h; 0.00702 µM
Would you kindly list cell viability for each of these compounds?
Give bare numbers, in %.

Known cell viability results, listed for orientation:
{"compound": "O=C1N\\C=N/C2=C1C=N[NH]2", "measurement_unit": "%", "cell viability": 83}
{"compound": "CO[C@@H]1[C@@H](O)[C@H](O)[C@@H](n2c3c(Cl)cccc3c3c4c(c5c6cccc(Cl)c6[nH]c5c32)C(=O)NC4=O)O[C@H]1CO", "measurement_unit": "%", "cell viability": 106}

Return reported cell viability values for all items listed beneath this line.
1. NNc1nncc2ccccc12
2. COc1cc2ncnc(Nc3cccc(Cl)c3)c2cc1OC

1. 128
2. 99.3

Return reported cell viability values for all items listed beneath this line.
1. CC[C@H]1CN2CCc3cc(OC)c(OC)cc3[C@@H]2C[C@@H]1C[C@H]1NCCc2cc(OC)c(OC)cc21
2. Clc1ccccc1C(c1ccccc1)(c1ccccc1)n1ccnc1
3. Cc1ccc(/C=N/NC(=O)c2ccccc2Oc2ccccc2)o1
4. CCCCc1nc2cc(/C=C/C(=O)NO)ccc2n1CCN(CC)CC

1. 122
2. 114
3. 97.2
4. 83.2

Return reported cell viability values for all items listed beneath this line.
1. CCOC(=O)[C@H]1O[C@@H]1C(=O)N[C@@H](CC(C)C)C(=O)NCCC(C)C
2. CC(C)CC(N(C)C)C1(c2ccc(Cl)cc2)CCC1 (stereo unspecified)
3. CC(C)Cn1cnc2c(N)nc3ccccc3c21
4. Oc1ccc(-c2ccc(-c3cc(Nc4cccc(CNC5CC5)c4)[nH]n3)cc2)c(O)c1
5. CC1=C(/C=C/C(C)=C/C=C/C(C)=C/C(=O)O)C(C)(C)CCC1

1: 107; 2: 113; 3: 116; 4: 103; 5: 114

Return reported cell viability values for all items listed beneath this line.
1. Oc1ccc2ccccc2c1SSc1c(O)ccc2ccccc12
2. CC(C)c1c(C(=O)Nc2ccccc2)c(-c2ccccc2)c(-c2ccc(F)cc2)n1CC[C@@H](O)C[C@@H](O)CC(=O)[O-]
3. Oc1ccc([C@@H]2Oc3ccc(O)cc3[C@@H]3CCC[C@@H]32)cc1
4. NCCc1ccc(O)c(O)c1
5. CC(C)[N+]1(C)C2CCC1CC(OC(=O)C(CO)c1ccccc1)C2.O.[Br-] (stereo unspecified)
6. Cc1cnc(Nc2ccc(CN3CCOCC3)cc2)nc1Nc1cccc([S+](=O)([O-])NC(C)(C)C)c1
7. C1COC(NC(C2CC2)C2CC2)=N1
8. COc1ccc(C2(C#N)CCC(C(=O)O)CC2)cc1OC1CCCC1 (stereo unspecified)

[111, 94.6, 97.5, 115, 95.1, 79.7, 79.2, 84.9]

====

- Test system: NOMO1
- protocol_description: cell viability relative to DMSO control; higher = less cytotoxic
- experimental_parameters: RPMI 5 mM glucose + 10% dialyzed FBS; 48 h; 0.00702 µM
Would you kindly list cell viability for each of these compounds?
One number for each entry, in %.

Known cell viability results, listed for orientation:
{"compound": "CCOCC(O)COc1ccc(NC(=O)CC[S+](C)C)cc1 (stereo not given)", "measurement_unit": "%", "cell viability": 78.1}
{"compound": "CCCCc1nc2cc(/C=C/C(=O)NO)ccc2n1CCN(CC)CC", "measurement_unit": "%", "cell viability": 86.4}

Return reported cell viability values for all items listed beneath this line.
1. COc1ccc(C2(C#N)CCC(C(=O)O)CC2)cc1OC1CCCC1 (stereo not given)
2. CN(C)[C@@H](CCOc1cccc2ccccc12)c1ccccc1
3. Cc1cnc(Nc2ccc(CN3CCOCC3)cc2)nc1Nc1cccc([S+](=O)([O-])NC(C)(C)C)c1
4. OCCN(CCO)c1nc(N2CCCCC2)c2nc(N(CCO)CCO)nc(N3CCCCC3)c2n1

98.3
114
89.4
117

Return reported cell viability values for all items listed beneath this line.
1. CN1CCN(CCCN2c3ccccc3Sc3ccc(Cl)cc32)CC1.O=C(O)/C=C\C(=O)O.O=C(O)/C=C\C(=O)O
2. C[C@H](NCc1ccc(OCc2cccc(F)c2)cc1)C(N)=O
3. C[C@@H](N)C1CC[C@@H](CC1)C(=O)NC2=CC=NC=C2 (stereo not given in full)
4. N#CC[C@H](C1CCCC1)n1cc(-c2ncnc3[nH]ccc23)cn1
5. CC(C)CC(N(C)C)C1(c2ccc(Cl)cc2)CCC1 (stereo not given)
6. CC(S)C(=O)NCC(=O)O (stereo not given)
7. CN(C(Cc1ccc(O[S+](=O)([O-])c2cccc3cnccc23)cc1)C(=O)N1CCN(c2ccccc2)CC1)[S+](=O)([O-])c1cccc2cnccc12 (stereo not given)

[127, 125, 110, 93.2, 124, 113, 99.8]

Return reported cell viability values for all items listed beneath this line.
1. O=C(NCc1ccccc1)c1csc(Nc2ccncn2)n1
2. C1COC(NC(C2CC2)C2CC2)=N1
3. Cc1ccc(/C=N/NC(=O)c2ccccc2Oc2ccccc2)o1
4. CCCCCN(CCC12CC3CC(CC(C3)C1)C2)C(=O)NCCCc1ccncc1
5. C[N+]1(C)[C@@H]2CC(OC(=O)C(O)(c3cccs3)c3cccs3)C[C@H]1[C@@H]1O[C@@H]12 (stereo not given in full)
6. Cc1cccc(-c2[nH]c(C(C)(C)C)nc2-c2ccc3c(c2)OCO3)n1
7. COc1cc2ncn(-c3cc(OCc4ccccc4C(F)(F)F)c(C(N)=O)s3)c2cc1OC

93.2
83.9
95.1
119
104
94.4
112

====

- System: P12-Ichikawa
- protocol_description: cell viability relative to DMSO control; higher = less cytotoxic
- experimental_parameters: RPMI 5 mM glucose + 10% FBS; 48 h; 15.4 µM
Would you kindly list cell viability for each of these compounds?
Numbers only, in %.

{"compound": "Oc1ccc([C@@H]2Oc3ccc(O)cc3[C@@H]3CCC[C@@H]32)cc1", "measured_metric": "cell viability", "measurement_unit": "%", "reported_value": 34.1}
{"compound": "CC(C)n1cnc2c(NCCc3ccc(O)cc3)nc(-c3csc4ccccc34)nc21", "measured_metric": "cell viability", "measurement_unit": "%", "reported_value": 53.5}
{"compound": "C[N]1N=CC=C1C/2=C(\\C)N(C(=O)C(=C2)/C(=O)NCC3=NC=C(C=C3)[S+](C)([O-])=O)C4=CC=CC(=C4)C(F)(F)F", "measured_metric": "cell viability", "measurement_unit": "%", "reported_value": 91.1}

Return reported cell viability values for all items listed beneath this line.
1. CS[C@H]1SC[C@@H]2C(=O)N(C)[C@H](C(C)C)C(=O)OC[C@H](NC(=O)c3cnc4ccccc4n3)C(=O)N[C@H](C)C(=O)N(C)[C@H]1C(=O)N(C)[C@H](C(C)C)C(=O)OC[C@H](NC(=O)c1cnc3ccccc3n1)C(=O)N[C@H](C)C(=O)N2C
2. CCOCC(O)COc1ccc(NC(=O)CC[S+](C)C)cc1 (configuration not stated)
3. CC(C)c1c(C(=O)Nc2ccccc2)c(-c2ccccc2)c(-c2ccc(F)cc2)n1CC[C@@H](O)C[C@@H](O)CC(=O)[O-]

7.34
104
56.3

Recorded cell viability of CCCCc1nc2cc(/C=C/C(=O)NO)ccc2n1CCN(CC)CC , please.
2.22
